# assay method text: decreased DLD-1 cellular survival, CellTiter-Glo luminescent readout, NPC compound collection, primary HTS (AID 1117346)
# condition: DLD-1 viability, CellTiter-Glo luminescence; at 20 µM (top of the series)
experimental readout: viability decrease (inhibition) (%)
Use % as the unit, but write only the number.

Exercise: Data request, read-out viability decrease (inhibition), for CC(C)OC(=O)c1cc2c(OCC(O)CNC(C)(C)C)cccc2[nH]1 (stereo not drawn)
Key: 7.6

Exercise: Data request, read-out viability decrease (inhibition), for CN1C(=O)CC(C)(c2ccccc2)C1=O (stereo not drawn)
Key: -5.25

Exercise: Data request, read-out viability decrease (inhibition), for Cc1c(N)c(=O)n(-c2ccccc2)n1C
Key: 10.9

Exercise: Data request, read-out viability decrease (inhibition), for CC[C@H](c1ccc(O)cc1)[C@@H](CC)c1ccc(O)cc1
Key: 101

Exercise: Data request, read-out viability decrease (inhibition), for Cc1cc(=O)oc2cc(O)ccc12
Key: -2.45

Exercise: Data request, read-out viability decrease (inhibition), for CCOC(=O)Nc1ccc(NCc2ccc(F)cc2)nc1N
Key: 8.6

Exercise: Data request, read-out viability decrease (inhibition), for NC(N)=NCCC[C@H](N)C(=O)O
Key: 0

Exercise: Data request, read-out viability decrease (inhibition), for N[C@H]1C(O)O[C@H](CO)[C@@H](O)[C@@H]1O (stereo partly drawn)
Key: -2.3

Exercise: Data request, read-out viability decrease (inhibition), for CCN(CC)C(=O)/C(C#N)=C/c1cc(O)c(O)c([N+](=O)[O-])c1
Key: 35.8

Exercise: Data request, read-out viability decrease (inhibition), for Cc1ccc(/C(=C\CN2CCCC2)c2ccccn2)cc1
Key: -45.1

Exercise: Data request, read-out viability decrease (inhibition), for O=C(CS(=O)Cc1ccco1)NC/C=C\COc1cc(CN2CCCCC2)ccn1 (stereo not drawn)
Key: 6.7

Exercise: Data request, read-out viability decrease (inhibition), for Cc1ccc(O)cc1
Key: -0.4

Exercise: Data request, read-out viability decrease (inhibition), for CCCCCCC[N+](CC)(CC)CCCCc1ccc(Cl)cc1
Key: 75.4

Exercise: Data request, read-out viability decrease (inhibition), for Cc1ccc2c(c1)c1c3n2CCNC3CCC1 (stereo not drawn)
Key: 29.4

Exercise: Data request, read-out viability decrease (inhibition), for COc1ccc(O)cc1
Key: 27.4

Exercise: Data request, read-out viability decrease (inhibition), for CC(C)(C)c1ccc(C(O)CCCN2CCC(C(O)(c3ccccc3)c3ccccc3)CC2)cc1 (stereo not drawn)
Key: 103

Exercise: Data request, read-out viability decrease (inhibition), for CC(C)n1c(/C=C/[C@@H](O)C[C@@H](O)CC(=O)O)c(-c2ccc(F)cc2)c2ccccc21
Key: 50.2

Exercise: Data request, read-out viability decrease (inhibition), for Nc1cc(=O)[nH]c(N)n1
Key: 13.6

Exercise: Data request, read-out viability decrease (inhibition), for O=C(O)CP(=O)(O)O
Key: -7.2

Exercise: Data request, read-out viability decrease (inhibition), for O=C(NCC1CN(c2ccc(N3CCOCC3=O)cc2)C(=O)O1)c1ccc(Cl)s1 (stereo not drawn)
Key: 9.9

Exercise: Data request, read-out viability decrease (inhibition), for O=C(O)[C@H](O)c1ccccc1
Key: -21.9

Exercise: Data request, read-out viability decrease (inhibition), for Cc1cc2nc3ccc(=[N+](C)C)cc-3sc2cc1N
Key: 38.4

Exercise: Data request, read-out viability decrease (inhibition), for CN(c1nccc(=O)[nH]1)C1CCN(c2nc3ccccc3n2Cc2ccc(F)cc2)CC1
Key: -5.1

Exercise: Data request, read-out viability decrease (inhibition), for CC[N+](CC)(CC)CCOc1ccc(/C=C/c2ccccc2)cc1
Key: 56.2

Exercise: Data request, read-out viability decrease (inhibition), for CC1(C)CC1C(=O)NC(=CCCCCSCC(N)C(=O)O)C(=O)O (stereo not drawn)
Key: -4

Exercise: Data request, read-out viability decrease (inhibition), for Cc1ccc(=O)n(-c2ccccc2)c1
Key: 12.8

Exercise: Data request, read-out viability decrease (inhibition), for O=C(O)c1cc(=O)[nH]c(=O)[nH]1
Key: 0.25

Exercise: Data request, read-out viability decrease (inhibition), for C[C@]12CC[C@@H]3c4ccc(O)cc4C[C@@H](CCCCCCCCCS(=O)CCCC(F)(F)C(F)(F)F)[C@H]3[C@@H]1CC[C@@H]2O (stereo partly drawn)
Key: 18.9

Exercise: Data request, read-out viability decrease (inhibition), for N[C@@H](Cc1c[nH]c2ccc(O)cc12)C(=O)O
Key: -5.7

Exercise: Data request, read-out viability decrease (inhibition), for CCCCOCCOCCOCc1cc2c(cc1CCC)OCO2
Key: 14.4

Exercise: Data request, read-out viability decrease (inhibition), for CN(C)CCCO[C@@H]1[C@H]2OC(C)(C)O[C@H]2O[C@@H]1C(O)CO (stereo partly drawn)
Key: 66.4

Exercise: Data request, read-out viability decrease (inhibition), for CCCC(=O)OCOC(=O)C1=C(C)NC(C)=C(C(=O)OC)C1c1cccc(Cl)c1Cl (stereo not drawn)
Key: 14.3

Exercise: Data request, read-out viability decrease (inhibition), for C[C@]12CCC(=O)C=C1[C@@H]1C[C@@H]1[C@H]1[C@@H]3[C@@H]4C[C@@H]4[C@@]4(CCC(=O)O4)[C@@]3(C)CC[C@@H]12
Key: 3.1

Exercise: Data request, read-out viability decrease (inhibition), for [O-][n+]1cccc(CO)c1
Key: -6

Exercise: Data request, read-out viability decrease (inhibition), for NC(=O)C1(N2CCCCC2)CCN(CCCN2c3ccccc3CCc3ccc(Cl)cc32)CC1
Key: 102

Exercise: Data request, read-out viability decrease (inhibition), for C[C@H](NCCc1ccc(O)cc1)[C@H](O)c1ccc(O)cc1
Key: -16.7

Exercise: Data request, read-out viability decrease (inhibition), for CCNC(=O)/C=C/c1cccc(Br)c1
Key: 15.1

Exercise: Data request, read-out viability decrease (inhibition), for CC(C)OC(=O)OCOP(=O)(CO[C@H](C)Cn1cnc2c(N)ncnc21)OCOC(=O)OC(C)C
Key: 47.8

Exercise: Data request, read-out viability decrease (inhibition), for CNCCCN1c2ccccc2CCc2ccccc21
Key: 33.3

Exercise: Data request, read-out viability decrease (inhibition), for NS(=O)(=O)c1cc(C(=O)O)cc(N2CCCC2)c1Oc1ccccc1
Key: -15.4

Exercise: Data request, read-out viability decrease (inhibition), for O=c1[nH]c(=O)n([C@H]2CCCO2)cc1F
Key: 11.5

Exercise: Data request, read-out viability decrease (inhibition), for Cc1nc2ccccc2n1Cc1ccc(Cl)cc1
Key: 40.1

Exercise: Data request, read-out viability decrease (inhibition), for O=C(O)CCn1c2c(c3ccccc31)C[C@H](NS(=O)(=O)c1ccc(F)cc1)CC2
Key: -0.3

Exercise: Data request, read-out viability decrease (inhibition), for COc1c(C)c2c(c(O)c1C/C=C(\C)CCC(=O)OCCN1CCOCC1)C(=O)OC2
Key: 53.3

Exercise: Data request, read-out viability decrease (inhibition), for OCCc1ccccc1
Key: -12.4

Exercise: Data request, read-out viability decrease (inhibition), for CNC(=O)c1cc(Oc2ccc(NC(=O)Nc3ccc(Cl)c(C(F)(F)F)c3)cc2)ccn1
Key: 102

Exercise: Data request, read-out viability decrease (inhibition), for COc1ccccc1O
Key: -5.1

Exercise: Data request, read-out viability decrease (inhibition), for CC(C)(C)C(=O)C(Oc1ccc(Cl)cc1)n1ccnc1 (stereo not drawn)
Key: 44.1

---

# assay method text: hESC survival regulators, cell-based (AID 493140);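 also: cells exposed to compounds for four days before counting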
# condition: human embryonic stem cell survival screen; active compounds read high
Binned survival; ranges: Low (below 9), Medium (9 to below 20), High (20 or more)

Exercise: Hi, small favor: classify C[C@H](CCC(=O)O)[C@H]1CC[C@H]2[C@@H]3[C@H](O)C[C@@H]4C[C@H](O)CC[C@]4(C)[C@H]3CC[C@]12C by its survival when you get a moment.
Key: Medium

Exercise: Hi, small favor: classify CC#C[C@]1(O)CC[C@H]2[C@@H]3CCC4=CC(=O)CCC4=C3[C@@H](c3ccc(N(C)C)cc3)C[C@@]21C by its survival when you get a moment.
Key: High

Exercise: Hi, small favor: classify CC(C)NCC(O)COc1cccc2[nH]ccc12 (centres undefined) by its survival when you get a moment.
Key: Low

Exercise: Hi, small favor: classify CN(C/C=C/c1ccccc1)Cc1cccc2ccccc12 by its survival when you get a moment.
Key: High

Exercise: Hi, small favor: classify CCCCCCCCCCCCCCCC(=O)NCCO by its survival when you get a moment.
Key: High

Exercise: Hi, small favor: classify C[C@]12CC[C@H]3[C@@H](CCC4=CC(=O)CC[C@@]43C)[C@@H]1CC[C@@H]2C(=O)CO by its survival when you get a moment.
Key: Low

Exercise: Hi, small favor: classify CC(=O)N(CC(O)CO)c1c(I)c(C(=O)NCC(O)CO)c(I)c(C(=O)NCC(O)CO)c1I (centres undefined) by its survival when you get a moment.
Key: Medium

Exercise: Hi, small favor: classify CCCCOc1cc(C(=O)OCCN(CC)CC)ccc1N by its survival when you get a moment.
Key: Medium

Where do these numbers come from? They come from PubChem BioAssay.
